Provenance of the data: patent US20250206818A1

Target: T1, recombinant human LAG-3 (human, UniProt P18627 23-450, limits assumed)
T1 sequence (looked up): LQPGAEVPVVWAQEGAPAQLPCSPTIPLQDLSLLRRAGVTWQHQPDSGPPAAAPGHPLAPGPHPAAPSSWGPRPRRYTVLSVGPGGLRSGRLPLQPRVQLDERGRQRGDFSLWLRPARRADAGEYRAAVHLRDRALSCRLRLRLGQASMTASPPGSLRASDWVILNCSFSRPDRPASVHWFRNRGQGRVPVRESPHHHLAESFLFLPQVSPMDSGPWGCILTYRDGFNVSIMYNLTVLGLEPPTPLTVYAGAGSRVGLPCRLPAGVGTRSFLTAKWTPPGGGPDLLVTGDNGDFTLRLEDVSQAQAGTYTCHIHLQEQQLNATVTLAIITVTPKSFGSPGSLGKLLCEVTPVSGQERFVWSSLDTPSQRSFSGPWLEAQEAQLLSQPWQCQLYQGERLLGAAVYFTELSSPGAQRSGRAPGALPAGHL
Test: surface plasmon resonance (data not shown)
MEASURE: binding result

# BINDER, MEASURE, VAL
rows = [
    ("P13B02-16 (antibody, IgG1, V domains shown, Humanized; generated as full length IgG1; also called P13B02-16 (IgG1)) VH: QVQMKQSGAEVKKPGASVKVSCTASGFNIKDTYIHWVRQAPGQGLEWMGEIDPANDNTKYDPKFQGRVTITADTSSNTVYMELSSLRSEDTAVYYCATYYYRYDVGGFDYWGQGTLVTVSS VL: EIVLTQSPGTLSLSPGERATLSCSVSSSISSSNLHWYQQKPGQAPRLLIYGTSNLASGIPDRFSGSGSGTDFTLTISRLEPEDFAVYYCQQWSSYPFTFGQGTKVEIK", "binding result", "binds"),
    ("P13B02-22 (antibody, IgG1, V domains shown, Humanized; generated as full length IgG1) VH: QVQMKQSGAEVVKPGASVKVSCTASGFNIKDTYIHWVRQAPGQGLEWIGEIDPANDNTKYDPKFQGRVTITADTSSNTVYLQLSSLRSEDTAVYYCATYYYRYDVGGFDYWGQGTLVTVSS VL: EIVLTQSPGTLSLSPGERATLSCSVSSSISSSNLHWYQQKPGQAPRLLIYGTSNLASGIPDRFSGSGSGTSYTLTISRLEPEDFAVYYCQQWSSYPFTFGQGTKVEIK", "binding result", "binds"),
    ("P13B02-35 (antibody, IgG1, V domains shown, Humanized; generated as full length IgG1) VH: QVQLKQSGAEVKKPGASVKVSCTASGFNIKDTYIHWVRQAPGQGLEWMGEIDPANDNTKYDPKFQGRVTITADTSTSTVYMELSSLRSEDTAVYYCATYYYKYDVGGFDYWGQGTLVTVSS VL: EIVLTQSPGTLSLSPGERATLSCSVSSSISSSNLHWYQQKPGQAPRLLIYGTSNLASGIPDRFSGSGSGTDFTLTISRLEPEDFAVYYCQQWSSYPFTFGQGTKVEIK", "binding result", "binds"),
]
